Each entry below carries its recorded inhibition at 1 µM.
- Subject Of Test: FAAH (Mus musculus (Mouse), UniProt O08914)
- Sequence (O08914 whole entry): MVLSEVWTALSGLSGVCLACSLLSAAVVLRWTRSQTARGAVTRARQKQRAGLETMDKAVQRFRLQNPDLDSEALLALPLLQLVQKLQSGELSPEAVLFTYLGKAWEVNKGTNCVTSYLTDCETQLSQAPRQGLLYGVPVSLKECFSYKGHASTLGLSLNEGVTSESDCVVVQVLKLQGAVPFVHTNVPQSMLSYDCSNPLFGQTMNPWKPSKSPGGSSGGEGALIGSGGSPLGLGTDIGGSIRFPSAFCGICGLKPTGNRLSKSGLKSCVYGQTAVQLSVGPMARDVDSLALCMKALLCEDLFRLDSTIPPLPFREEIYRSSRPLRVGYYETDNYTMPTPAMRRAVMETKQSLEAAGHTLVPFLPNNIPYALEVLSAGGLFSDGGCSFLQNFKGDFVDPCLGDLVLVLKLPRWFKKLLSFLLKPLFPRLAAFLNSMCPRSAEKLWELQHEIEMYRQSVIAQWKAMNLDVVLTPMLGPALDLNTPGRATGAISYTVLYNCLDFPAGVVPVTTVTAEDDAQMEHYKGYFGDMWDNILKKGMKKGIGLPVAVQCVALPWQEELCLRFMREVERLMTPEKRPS
- Experiment Summary: In vitro competitive activity-based protein profiling (mouse brain membrane fraction or cell lysates), FAAH band
- Type: biochemical
- Reported Conditions: 1 μM, mouse proteome; read-out: FAAH % Inh 1 μM (mouse)

# count of solved cases: 6
{"columns": ["Compound", "Subject Of Test", "inhibition at 1 µM"],
 "data": [
  ["O=C(OC(C(F)(F)F)C(F)(F)F)N1CCC2(CCN(Cc3ccc(N4CCCC4)c(C(F)(F)F)c3)C2)CC1 [Example 141]", "FAAH (Mus musculus (Mouse), UniProt O08914)", "< 25%"],
  ["CC(=O)N1CCc2cccc(CN3CCCC34CCN(C(=O)OC(C(F)(F)F)C(F)(F)F)CC4)c2C1 [Example 145]", "FAAH (Mus musculus (Mouse), UniProt O08914)", "< 25%"],
  ["O=C(OC(C(F)(F)F)C(F)(F)F)N1CCC2(CCCN2Cc2ccc(C(F)(F)F)cc2N2CC3CCC(C2)O3)CC1 [Example 73]", "FAAH (Mus musculus (Mouse), UniProt O08914)", "< 25%"],
  ["Cc1cc(CN2CCCC23CCN(C(=O)OC(C(F)(F)F)C(F)(F)F)CC3)ccc1C(F)(F)F [Example 177]", "FAAH (Mus musculus (Mouse), UniProt O08914)", "< 25%"],
  ["O=C(OC(C(F)(F)F)C(F)(F)F)N1CCC2(CCN(Cc3ccc(Cl)cc3N3CCOCC3)C2)CC1 [Example 21]", "FAAH (Mus musculus (Mouse), UniProt O08914)", "< 25%"],
  ["NC(=O)c1ccc(CN2CCCC23CCN(C(=O)OC(C(F)(F)F)C(F)(F)F)CC3)cc1C(F)(F)F [Example 181]", "FAAH (Mus musculus (Mouse), UniProt O08914)", "< 25%"]
]}

Continue with the compound presented below.
Prompt: Quick check: inhibition at 1 µM of CC(=O)N1CCN(c2cccc(CN3CCCC34CCN(C(=O)OC(C(F)(F)F)C(F)(F)F)CC4)c2Cl)CC1 [Example 114] ?
Completion: < 25%

----------
- Subject Of Test: ABHD6 (Mus musculus (Mouse), UniProt Q8R2Y0)
- Sequence (Q8R2Y0 whole entry): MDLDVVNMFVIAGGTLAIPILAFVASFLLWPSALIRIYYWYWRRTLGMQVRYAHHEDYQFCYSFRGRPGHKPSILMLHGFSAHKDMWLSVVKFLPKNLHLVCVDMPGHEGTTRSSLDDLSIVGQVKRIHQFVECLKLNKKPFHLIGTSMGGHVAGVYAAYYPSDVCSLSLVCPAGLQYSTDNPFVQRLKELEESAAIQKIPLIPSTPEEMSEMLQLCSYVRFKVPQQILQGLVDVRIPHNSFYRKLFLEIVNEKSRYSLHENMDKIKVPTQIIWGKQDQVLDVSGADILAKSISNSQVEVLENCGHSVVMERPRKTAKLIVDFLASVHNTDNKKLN
- Experiment Summary: In vitro competitive activity-based protein profiling (mouse brain membrane fraction or cell lysates), ABHD6 band
- Type: biochemical
- Reported Conditions: 1 μM, mouse proteome; read-out: ABHD6 % Inh 1 μM (mouse)
- Method: In Vitro Competitive Activity-Based Protein Profiling. Proteomes (mouse brain membrane fraction or cell lysates) (50 μL, 1.0 mg/mL total protein concentration) were preincubated with varying concentrations of inhibitors at 37° C. […] Following gel imaging, serine hydrolase activity was determined by measuring fluorescent intensity of gel bands corresponding to MAGL, ABHD6 and FAAH using ImageJ 1.43u software.
Reported Endpoint: inhibition at 1 µM

{"columns": ["Compound", "Assay Value"],
 "data": [
  ["O=C(O)[C@H]1CCCN(c2cc(CN3CCCC34CCN(C(=O)OC(C(F)(F)F)C(F)(F)F)CC4)cc(C(F)(F)F)c2)C1 [Example 213]", "< 25%"],
  ["O=C(OC(C(F)(F)F)C(F)(F)F)N1CCC2(CCCN2Cc2ccc3c(c2)OCCO3)CC1 [Example 126]", "25 to 75%"],
  ["O=C(OC(C(F)(F)F)C(F)(F)F)N1CCC2(CCCN2Cc2ccc(Cl)cc2N2CCOCC2)CC1 [Example 77]", "< 25%"],
  ["O=C(OC(C(F)(F)F)C(F)(F)F)N1CCC2(CCCN2Cc2ccc(Cl)cc2N2CCC(F)CC2)CC1 [Example 102]", "< 25%"],
  ["CC(C)N1CCc2cccc(CN3CCCC34CCN(C(=O)OC(C(F)(F)F)C(F)(F)F)CC4)c2C1 [Example 147]", "< 25%"]
]}

Prompt: Quick check: inhibition at 1 µM of CC1(C)CC2(CCN(C(=O)OC(C(F)(F)F)C(F)(F)F)CC2)CN1Cc1c(N2CCC3(CCOCC3)C2)cccc1C(F)(F)F [Example 56] ?
Completion: < 25%

Prompt: Would you kindly repeat that for O=C(OC(C(F)(F)F)C(F)(F)F)N1CCC2(CCN(Cc3ccc(C(F)(F)F)c(N4CCOCC4)c3)C2)CC1 [Example 156] ?
Completion: ≥ 75%

----------
- Subject Of Test: ABHD6 (Mus musculus (Mouse))
- Experiment Summary: In vitro competitive activity-based protein profiling (mouse brain membrane fraction or cell lysates), ABHD6 band
- Type: biochemical
- Reported Conditions: 1 μM, mouse proteome; read-out: ABHD6 % Inh 1 μM (mouse)
Reported Endpoint: inhibition at 1 µM

{"columns": ["Compound", "inhibition at 1 µM"],
 "data": [
  ["CC(C)CN1CCc2cccc(CN3CCCC34CCN(C(=O)OC(C(F)(F)F)C(F)(F)F)CC4)c2C1 [Example 149]", "25 to 75%"],
  ["CCOc1cccc(CN2CCCC23CCN(C(=O)OC(C(F)(F)F)C(F)(F)F)CC3)c1 [Example 5]", "< 25%"],
  ["O=C(O)C1CCN(c2cc(Cl)ccc2CN2CCC3(CCN(C(=O)OC(C(F)(F)F)C(F)(F)F)CC3)C2)CC1 [Example 118]", "< 25%"],
  ["O=C(OC(C(F)(F)F)C(F)(F)F)N1CCC2(CCCN2Cc2cccc(N3CCOCC3)c2Cl)CC1 [Example 79]", "< 25%"],
  ["CC1(C(=O)O)CCCN(c2cc(C(F)(F)F)ccc2CN2CCC3(CCN(C(=O)OC(C(F)(F)F)C(F)(F)F)CC3)C2)C1 (centres unmarked) [Example 216]", "25 to 75%"]
]}

Prompt: Quick check: inhibition at 1 µM of O=C(OC(C(F)(F)F)C(F)(F)F)N1CCC2(CCCN2Cc2ccc(Cl)cc2OCCF)CC1 [Example 30] ?
Completion: < 25%

Prompt: Would you kindly repeat that for O=C(OC(C(F)(F)F)C(F)(F)F)N1CCC2(CCCN2Cc2ccc(Cl)cc2N2CCC2)CC1 [Example 107] ?
Completion: < 25%

Prompt: Would you kindly repeat that for O=C(O)C1CCN(c2cc(Cl)cc(CN3CCCC34CCN(C(=O)OC(C(F)(F)F)C(F)(F)F)CC4)c2)CC1 [Example 122] ?
Completion: < 25%

----------
Each entry below carries its recorded pIC50.
- Subject Of Test: UniProt Q8R2Y0
- Experiment Summary: In vitro competitive activity-based protein profiling (mouse brain membrane fraction or cell lysates), ABHD6 band
- Type: biochemical
- Reported Conditions: mouse proteome, competitive ABPP
pIC50: −log10 of the molar value.

{"columns": ["Smiles Text", "pIC50"],
 "data": [
  ["Cc1c(CN2CCCC23CCN(C(=O)OC(C(F)(F)F)C(F)(F)F)CC3)cccc1N1CCOCC1", "< 6.00"]
]}

Prompt: Quick check: pIC50 of CC1(C)CC2(CCN(C(=O)OC(C(F)(F)F)C(F)(F)F)CC2)CN1Cc1ccc(Cl)cc1N1CCOCC1 ?
Completion: < 6.00

Prompt: Would you kindly repeat that for CC(=O)N1CCc2cccc(CN3CCC4(CCN(C(=O)OC(C(F)(F)F)C(F)(F)F)CC4)C3)c2C1 ?
Completion: > 7.00

Prompt: Would you kindly repeat that for O=C(OC(C(F)(F)F)C(F)(F)F)N1CCC2(CCCN2Cc2ccc(Cl)c(C(F)(F)F)c2)CC1 ?
Completion: < 6.00

----------
Each entry below carries its recorded IC50.
- Subject Of Test: ABHD6 (Mus musculus (Mouse))
- Experiment Summary: In vitro competitive activity-based protein profiling (mouse brain membrane fraction or cell lysates), ABHD6 band
- Format: biochemical
- Reported Conditions: mouse proteome, competitive ABPP
- Protocol: In Vitro Competitive Activity-Based Protein Profiling. Proteomes (mouse brain membrane fraction or cell lysates) (50 μL, 1.0 mg/mL total protein concentration) were preincubated with varying concentrations of inhibitors at 37° C. […] Following gel imaging, serine hydrolase activity was determined by measuring fluorescent intensity of gel bands corresponding to MAGL, ABHD6 and FAAH using ImageJ 1.43u software.

{"columns": ["Compound", "IC50"],
 "data": [
  ["COc1cccc(CN2CCCC23CCN(C(=O)OC(C(F)(F)F)C(F)(F)F)CC3)c1 [Example 2]", "> 1 µM"],
  ["O=C(OC(C(F)(F)F)C(F)(F)F)N1CCC2(CCCN2Cc2ccc(Cl)cc2N2CCC(F)(F)CC2)CC1 [Example 101]", "> 1 µM"],
  ["CC(C)N1CCc2cccc(CN3CCC4(CCN(C(=O)OC(C(F)(F)F)C(F)(F)F)CC4)C3)c2C1 [Example 162]", "0.1 to 1 µM"]
]}

Continue with the compound presented below.
Prompt: Quick check: IC50 of O=C(OC(C(F)(F)F)C(F)(F)F)N1CCC2(CCCN2Cc2ccc(C(F)(F)F)cc2N2CCCCC2)CC1 [Example 78] ?
Completion: > 1 µM
